Target: human OX2R (Homo sapiens, UniProt O43614)
Sequence (O43614 whole entry): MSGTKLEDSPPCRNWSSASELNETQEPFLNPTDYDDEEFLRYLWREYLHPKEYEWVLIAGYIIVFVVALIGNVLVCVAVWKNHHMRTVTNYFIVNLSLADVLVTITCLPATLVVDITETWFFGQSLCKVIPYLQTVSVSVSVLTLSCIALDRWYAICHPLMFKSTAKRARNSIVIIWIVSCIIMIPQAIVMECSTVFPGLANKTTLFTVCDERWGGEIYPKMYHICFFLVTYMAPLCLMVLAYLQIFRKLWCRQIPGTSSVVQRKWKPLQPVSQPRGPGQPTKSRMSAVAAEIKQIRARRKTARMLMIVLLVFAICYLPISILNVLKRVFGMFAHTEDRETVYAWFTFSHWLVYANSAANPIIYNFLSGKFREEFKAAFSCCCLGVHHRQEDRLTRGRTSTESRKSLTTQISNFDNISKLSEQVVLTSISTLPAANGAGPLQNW
Assay: Evaluation of agonist activity against OX2R (intracellular calcium, Fura-2AM, FDSS7000, CHOOX2R cells)
Settings: CHO cells expressing human OX2R; calcium fluorescence ratio 340/380 nm; 10^-11.5 M to 10^-5 M
endpoint: EC50 (nM)
API: value field is a number in nM; no unit string.

CCOc1ccc(N2CCCN(c3cccc(NS(=O)(=O)c4cc(C(C)C)ccc4OC)c3)C2=O)cc1 has a reported EC50 of 38.1

Value of EC50 reported for the molecule CCc1ccc(N2CCCN(c3cccc(NS(=O)(=O)c4cc(-c5cccc(C(=O)N(C)C)c5)ccc4OC)c3)C2=O)cc1 is 3.1

The measured values listed here are drawn from patent US11673867B2.
